Where these numbers come from: PubChem BioAssay (NCI)

test system: SNB-75 CNS; assay: NCI-60 one-dose screen, 48 h (100 = growth as untreated, 0 = no growth, -100 = all killed); details: 10 µM unless noted
The panel holds about 83,000 compounds, 20% with a hit somewhere; the sample as a whole holds those more often.
Mark yes only for growth values smaller than 80%; exact matches and larger values are no.

- COMPOUND: "C[C@]12CCc3sc(Nc4ccc(OC(F)(F)F)cc4)nc3C1=CC[C@@H]1[C@@H]2CC[C@]2(C)C(=O)CC[C@@H]12"
  ASSIGNED CATEGORY: "yes"
- COMPOUND: "COc1c(O)cc2c(c1OC)-c1ccc(SC)c(=O)cc1C(NC(C)=O)CC2 (stereo not given)"
  ASSIGNED CATEGORY: "yes"
- COMPOUND: "Cc1ccc(NC2=N[C@]34CC(=O)CC[C@]3(C)[C@H]3CC[C@]5(C)C(=O)CC[C@H]5[C@@H]3C[C@@H]4S2)c(C)c1"
  ASSIGNED CATEGORY: "yes"
- COMPOUND: "O=C1CCCCC1CN1CCCCC1 (stereo not given)"
  ASSIGNED CATEGORY: "no"
- COMPOUND: "N#CCc1ccc(CC#N)cc1"
  ASSIGNED CATEGORY: "no"
- COMPOUND: "C=CCOC(=O)C(Br)CC (stereo not given)"
  ASSIGNED CATEGORY: "no"
- COMPOUND: "CN1[C@@H](CC(=O)c2ccccc2)CCC[C@H]1CC(=O)c1ccccc1"
  ASSIGNED CATEGORY: "no"
- COMPOUND: "CCOC(=O)c1ccccc1C(=O)OCC"
  ASSIGNED CATEGORY: "no"
- COMPOUND: "O=NN1CCCCC1"
  ASSIGNED CATEGORY: "no"
- COMPOUND: "O=S(=O)(c1ccc(O)cc1)c1ccccc1O"
  ASSIGNED CATEGORY: "no"
- COMPOUND: "CCCCOC(N)=O"
  ASSIGNED CATEGORY: "no"
- COMPOUND: "COc1ccc2c(c1)C1(C)CCN(C)CC(C1)C2O (stereo not given)"
  ASSIGNED CATEGORY: "no"
- COMPOUND: "C[C@]12CCc3nc(-c4ccc(O)c(O)c4)sc3C1=CC[C@@H]1[C@@H]2CC[C@]2(C)C(=O)CC[C@@H]12"
  ASSIGNED CATEGORY: "no"
- COMPOUND: "Cc1cc(N(CCCl)CCCl)ccc1C=Nc1ccc(-c2csc(-c3ccccc3)n2)cc1"
  ASSIGNED CATEGORY: "no"
